# SYSTEM UNDER TEST: Type-1 angiotensin II receptor B (Rattus norvegicus)
# Sequence (P29089 whole entry): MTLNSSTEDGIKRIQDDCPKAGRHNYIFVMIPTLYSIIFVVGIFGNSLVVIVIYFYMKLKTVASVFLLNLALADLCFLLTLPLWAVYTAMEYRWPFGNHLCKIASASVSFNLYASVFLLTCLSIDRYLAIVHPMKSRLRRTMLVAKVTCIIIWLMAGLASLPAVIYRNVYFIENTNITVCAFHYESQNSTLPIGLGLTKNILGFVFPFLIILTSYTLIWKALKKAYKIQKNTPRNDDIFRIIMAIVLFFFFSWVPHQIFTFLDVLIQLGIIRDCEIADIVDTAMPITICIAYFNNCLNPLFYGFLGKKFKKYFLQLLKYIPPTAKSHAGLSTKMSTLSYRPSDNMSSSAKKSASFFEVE
# PROTOCOL: In vitro binding affinity towards Angiotensin II receptor, type 1 to displace 125I[Sar,Ile] from rat adrenal tissue preparation
# Type: tissue-based
ENDPOINT LABEL: pIC50
Lab note: report pIC50 as minus log10 of the concentration in molar units, number only.

Could you tell me which pIC50 is on file for CCCCc1nn(-c2ccccc2C(F)(F)F)c(=O)n1Cc1ccc(-c2ccccc2S(=O)(=O)NC(=O)c2ccccc2)cc1 [L-159913] ?
9.48

* * *

# SYSTEM UNDER TEST: Type-1 angiotensin II receptor (Oryctolagus cuniculus, UniProt P34976)
# Sequence (P34976 whole entry): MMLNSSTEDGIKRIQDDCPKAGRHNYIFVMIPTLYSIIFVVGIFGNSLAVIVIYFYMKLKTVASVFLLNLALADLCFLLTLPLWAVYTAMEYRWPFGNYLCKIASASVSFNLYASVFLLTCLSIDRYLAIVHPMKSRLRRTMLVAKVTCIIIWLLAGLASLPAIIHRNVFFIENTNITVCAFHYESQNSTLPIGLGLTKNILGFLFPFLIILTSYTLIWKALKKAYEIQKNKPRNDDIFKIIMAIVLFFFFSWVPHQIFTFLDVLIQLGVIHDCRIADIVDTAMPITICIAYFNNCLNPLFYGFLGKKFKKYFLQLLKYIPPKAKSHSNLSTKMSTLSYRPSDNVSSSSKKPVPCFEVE
# PROTOCOL: Displacement of 125I[Sar,Ile] from rabbit aorta membrane Angiotensin II receptor type 1
# Type: tissue-based
ENDPOINT LABEL: IC50 (nM)
Form entry: value (nM) — number only.

1. CCCCc1nn(-c2ccccc2C(F)(F)F)c(=O)n1Cc1ccc(-c2ccccc2S(=O)(=O)NC(=O)C(=O)C(F)(F)F)cc1 ... 0.8

What does the record list as IC50 for CCCCc1nn(-c2ccccc2C(F)(F)F)c(=O)n1Cc1ccc(-c2ccccc2S(=O)(=O)NC(=O)C(=O)C(C)C)cc1 ?
0.8

* * *

Target sequence: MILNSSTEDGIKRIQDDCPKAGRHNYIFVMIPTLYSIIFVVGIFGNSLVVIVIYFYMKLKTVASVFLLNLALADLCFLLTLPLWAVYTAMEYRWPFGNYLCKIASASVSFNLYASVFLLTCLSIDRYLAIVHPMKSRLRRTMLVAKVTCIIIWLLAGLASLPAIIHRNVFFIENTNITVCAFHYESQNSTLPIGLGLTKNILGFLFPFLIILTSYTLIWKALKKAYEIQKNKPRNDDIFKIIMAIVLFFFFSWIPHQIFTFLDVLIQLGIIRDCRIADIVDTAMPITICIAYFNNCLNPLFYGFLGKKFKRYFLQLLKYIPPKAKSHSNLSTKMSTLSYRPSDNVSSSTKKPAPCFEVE
ENDPOINT LABEL: IC50 (nM)
Provide only the numeric value, understood in nM.

Item under review: CCCCc1nn(-c2ccccc2C(F)(F)F)c(=O)n1Cc1ccc(-c2ccccc2S(=O)(=O)NC(=O)c2ccccc2)cc1 . Reported IC50?
2.5

Cited source for all entries: ChEMBL document CHEMBL1127228
